// data source = ChEMBL document CHEMBL5370597

# Test system: Tritrichomonas foetus
# Experiment: Antiprotozoal activity against Tritrichomonas foetus KV-1 strain assessed as inhibition of protozoal growth measured after 72 hrs under anaerobic conditions
# Format: functional
Measurement Name: LD99 (µM)
One number for each entry, in µM.

                                   compound  measurement_name  unit_annotation  endpoint_value
0  CN[C@@H]1C[C@H]2O[C@@](C)([C@@H]1OC)n1c3ccccc3c3c4c(c5c6ccccc6n2c5c31)C(=O)NC4 [STAUROSPORINE]              LD99               µM             1.2

Then there is this compound:
*Q* Recall the reported LD99 of `COC(=O)c1oc(=O)c2c(O)c3c(O)c(C(C)=O)oc3cc2c1O` when tested on Tritrichomonas foetus.
*A* 4.8
